Examples of compounds with documented cytotoxicity at 70.5 h follow.
experiment: Human HepG2 cell viability assay in 384 well format; assay type: toxicity, cell-based; set-up: dose 125 nL, time 70.5 hour; concentration not given beside the values; settings: HepG2 cells, read-out: Inhibition
Number only, in %; omit the unit.

## Task Give the reported cytotoxicity at 70.5 h for this compound. O=C(NCC(F)(F)F)c1ccc(-n2cncn2)nn1
## Result 1.36

## Task Give the reported cytotoxicity at 70.5 h for this compound. Cc1cccc(CN2C(=O)CC[C@@H]3[C@H]2CCN3Cc2cccnc2)n1
## Result -0.831

## Task Give the reported cytotoxicity at 70.5 h for this compound. COCCN1CC2(CCCN(c3ncnc4[nH]cnc34)C2)CCC1=O (stereo not given)
## Result -1.89

## Task Give the reported cytotoxicity at 70.5 h for this compound. COC(=O)c1cc2c(OC)c(C)c(OC)cc2[nH]1
## Result -9.36

## Task Give the reported cytotoxicity at 70.5 h for this compound. CC(C)(O)CSCCNC(=O)c1ccc(F)cc1Cl
## Result -2.51

Next:
## Task Give the reported cytotoxicity at 70.5 h for this compound. C=C(C)CN(Cc1cccc(O)c1)C1CCC(O)CC1 (stereo not given)
## Result -6.84

## Task Give the reported cytotoxicity at 70.5 h for this compound. CC(c1nc(C2CC2)no1)N1CCN(Cc2noc(C3CC3)n2)CC1 (stereo not given)
## Result -2.08

## Task Give the reported cytotoxicity at 70.5 h for this compound. CCc1nc(C2CCCN(C(=O)c3ccccc3O)C2)no1 (stereo not given)
## Result 3.74

## Task Give the reported cytotoxicity at 70.5 h for this compound. CN1CC2(CCN(C(=O)CCCOCc3ccccc3)C2)OC1=O (stereo not given)
## Result -11.2

## Task Give the reported cytotoxicity at 70.5 h for this compound. FC(F)(F)c1cccc(C2(CNCc3ccncc3)CCOCC2)c1
## Result 6.55

## Task Give the reported cytotoxicity at 70.5 h for this compound. COCCCNC(=O)c1c[nH]c2ccc(OC)cc12
## Result -1.45

* * *

Examples of molecules with documented cytotoxicity at 70.5 h follow.
assay: Human HepG2 cell viability assay in 384 well format; type: toxicity, cell-based; set-up: dose 125 nL, time 70.5 hour; concentration not given beside the values; settings: HepG2 cells, read-out: Inhibition
Number only, in %; omit the unit.

## Task Give the reported cytotoxicity at 70.5 h for this molecule. Cc1nc(C(NC(=O)c2cc(C(C)C)[nH]n2)c2ccccc2)n[nH]1 (stereo not given)
## Result -11.7

## Task Give the reported cytotoxicity at 70.5 h for this molecule. Cc1ccc(N2CCCN(C(=O)CCCn3ccnc3C)CC2)nn1
## Result -0.226

## Task Give the reported cytotoxicity at 70.5 h for this molecule. CC(C)(C)c1n[nH]c(C2CN(C(=O)Cn3ccccc3=O)CCO2)n1 (stereo not given)
## Result -5.55

## Task Give the reported cytotoxicity at 70.5 h for this molecule. CCCN1C[C@H]2CC[C@@H]1CN(Cc1cccc(-n3cccn3)c1)C2
## Result -0.983

The record that follows has no cytotoxicity at 70.5 h shown yet.
## Task Give the reported cytotoxicity at 70.5 h for this molecule. CCc1ccc(S(=O)(=O)Nc2ccncc2)s1
## Result -5.81

* * *

assay: Human HepG2 cell viability assay in 384 well format; assay type: toxicity, cell-based; set-up: dose 125 nL, time 70.5 hour; concentration not given beside the values; conditions: HepG2 cells, read-out: Inhibition
Examples of compounds with documented cytotoxicity at 70.5 h follow.
Number only, in %; omit the unit.

## Task Give the reported cytotoxicity at 70.5 h for this compound. CC(C)CCNC(=O)C1CCN(c2ccc3nnc(C(C)C)n3n2)CC1
## Result -30

## Task Give the reported cytotoxicity at 70.5 h for this compound. Cc1nc(-c2ccsc2)ccc1C(=O)O
## Result -4.19

## Task Give the reported cytotoxicity at 70.5 h for this compound. O=C(O)c1cc2c(nc1-c1ccsc1)CCN(C(=O)C1CC1)CC2
## Result -7.32

The record that follows has no cytotoxicity at 70.5 h shown yet.
## Task Give the reported cytotoxicity at 70.5 h for this compound. Cc1cc(C)n(CC2CCCN2C(=O)Cc2cn3ccccc3n2)n1 (centres undefined)
## Result -3.71

* * *

Examples of compounds with documented cytotoxicity at 70.5 h follow.
test: Human HepG2 cell viability assay in 384 well format; type: toxicity, cell-based; design: dose 125 nL, time 70.5 hour; concentration not given beside the values; conditions: HepG2 cells, read-out: Inhibition
Number only, in %; omit the unit.

The examples below pair each entry with its known result.
## Task Give the reported cytotoxicity at 70.5 h for this compound. CN(C(=O)OC(C)(C)C)C1CCN(C(=O)c2cc(Cl)c[nH]2)C1 (configuration not stated)
## Result 13

## Task Give the reported cytotoxicity at 70.5 h for this compound. Cc1ccc(OCC(=O)N(C)Cc2cccc(F)c2)cn1
## Result -3.84

## Task Give the reported cytotoxicity at 70.5 h for this compound. COc1ccc(CN2CCN(c3nccnc3OC)CC2=O)cc1
## Result -4.78

Next:
## Task Give the reported cytotoxicity at 70.5 h for this compound. c1cc(NCc2ccncc2)nc(C2CCCN2)c1 (configuration not stated)
## Result 2.66

## Task Give the reported cytotoxicity at 70.5 h for this compound. O=C(NCCCc1ccncc1)C1CCCN(Cc2ccco2)C1 (configuration not stated)
## Result 9.58

## Task Give the reported cytotoxicity at 70.5 h for this compound. Cc1cc(C)nc(N2CCC(c3c(C(N)=O)sc4ccccc34)C2)n1 (configuration not stated)
## Result -3.24

## Task Give the reported cytotoxicity at 70.5 h for this compound. CC(C)c1nnc2n1CC(CNCc1ccc3c(c1)OCCO3)CC2 (configuration not stated)
## Result -3.48

## Task Give the reported cytotoxicity at 70.5 h for this compound. CCOC[C@@H]1CC[C@H]2[C@H](CCN2S(=O)(=O)c2ccc(F)cc2)O1
## Result -6.92

## Task Give the reported cytotoxicity at 70.5 h for this compound. O=C(C(CNCc1cccc(O)c1)c1ccccc1)N1CCOCC1 (configuration not stated)
## Result -4.48

## Task Give the reported cytotoxicity at 70.5 h for this compound. CN(C)C(CNC(=O)c1nc(N2CCCC2)ncc1Cl)c1ccco1 (configuration not stated)
## Result -17.5

## Task Give the reported cytotoxicity at 70.5 h for this compound. Cc1nc(Nc2nncs2)cc(C2CNC2)n1
## Result -5.34

## Task Give the reported cytotoxicity at 70.5 h for this compound. Cc1ncc2c(c1-c1noc(-c3cscn3)n1)CCNC2
## Result 7.48

* * *

experiment: Human HepG2 cell viability assay in 384 well format; format: toxicity, cell-based; parameters: dose 125 nL, time 70.5 hour; concentration not given beside the values; details: HepG2 cells, read-out: Inhibition
Examples of compounds with documented cytotoxicity at 70.5 h follow.
Number only, in %; omit the unit.

The examples below pair each entry with its known result.
## Task Give the reported cytotoxicity at 70.5 h for this compound. CCc1ccc(CNC(=O)NC2CCCc3c2cnn3CCO)s1 (stereo not given)
## Result -2.75

## Task Give the reported cytotoxicity at 70.5 h for this compound. CCC(=O)N(CC)C(c1cccnc1)c1ccc2c(c1)CCO2 (stereo not given)
## Result -2.76

## Task Give the reported cytotoxicity at 70.5 h for this compound. CC(NC(=O)NCc1c(F)cccc1Cl)(C(=O)O)c1ccco1 (stereo not given)
## Result -8.24

## Task Give the reported cytotoxicity at 70.5 h for this compound. CC(C)Oc1ncccc1CNC(=O)c1cnccn1
## Result -5.94

## Task Give the reported cytotoxicity at 70.5 h for this compound. CC(C)(C)NC(=O)CN1CCCC(c2ccc(C(=O)O)cc2)C1 (stereo not given)
## Result 0.492

Next:
## Task Give the reported cytotoxicity at 70.5 h for this compound. CS(=O)(=O)Cc1ccc(NC(=O)Cc2cccnc2)cc1F
## Result -4.71

## Task Give the reported cytotoxicity at 70.5 h for this compound. CC(=O)N1C[C@H](NC(=O)c2ccnc(N)c2)[C@@H](C(C)C)C1
## Result 3.14

## Task Give the reported cytotoxicity at 70.5 h for this compound. Cc1nc(O)cc(CCNC(=O)c2ccc(CN3CCCCC3)cc2)n1
## Result 0.488

## Task Give the reported cytotoxicity at 70.5 h for this compound. O=C1NCCCC12CCN(Cc1ccc(SC3CCCCC3)o1)C2 (stereo not given)
## Result 5.14

## Task Give the reported cytotoxicity at 70.5 h for this compound. CC(=O)N1CCc2ncc(CNC(=O)C3CCC3)n2CC1
## Result -2.29

## Task Give the reported cytotoxicity at 70.5 h for this compound. Cc1cc(C(=O)N2CCCC3(COCCN(CCN(C)C)C3)C2)no1 (stereo not given)
## Result 1.65

## Task Give the reported cytotoxicity at 70.5 h for this compound. O=c1c(NCCCO)c(N2CCN(c3ccccc3)CC2)c1=O
## Result -2.43

## Task Give the reported cytotoxicity at 70.5 h for this compound. O=C(CCN1CCC(C(=O)c2cc(F)ccc2F)CC1)NC1CCCC1
## Result -17.8

The measured values listed here are drawn from ChEMBL document CHEMBL3507680.
